Experiment: Pharmacokinetics studies in rats
Type: in vivo
Conditions: male, SD, rat, plasma, po, 50 mg/kg
outcome_measure: Cmax (ng/mL)
# output: bare number, implied unit ng/mL

Input: Please give the documented Cmax of C[C@H]1[C@H](OC(=O)CCC(=O)O)O[C@@H]2O[C@@]3(C)CC[C@H]4[C@H](C)CC[C@@H]1[C@@]24OO3 [ART, Artesunate]
Output: 4580

---

Assay: Pharmacokinetics studies in rats
Type: in vivo
Conditions: male, SD, rat, plasma, po, 50 mg/kg
outcome_measure: Tmax (min)
# output: bare number, implied unit min

Input: Please give the documented Tmax of C[C@H]1[C@H](OC(=O)CCC(=O)O)O[C@@H]2O[C@@]3(C)CC[C@H]4[C@H](C)CC[C@@H]1[C@@]24OO3 [ART, Artesunate]
Output: 15
